Answer each item with its documented pIC50.
Test system: HIV-1 (H9/IIIB strain)
Assay: microbe, parasite or virus in culture
Type: cell-based
Conditions: 50% normal human serum; MT4-GFP cells infected with HIV-1 H9/IIIB; inhibition of reproductive ratio R0; read-out: Viking, IC50 (50% NHS)
One number for each entry, as −log10 of the molar value.

Some compounds with known pIC50 results, for comparison:
compound="CC(C)OC(=O)[C@H](C)CNP(=O)(CO[C@H](C)Cn1cnc2c(N)ncnc21)N[C@@H](C)C(=O)OC(C)C (single isomer, unassigned) [Example 10B]" value_observed=6.04
compound="CC(C)OC(=O)C[C@H](C)NP(=O)(CO[C@H](C)Cn1cnc2c(N)ncnc21)N[C@@H](C)C(=O)OC(C)C (single isomer, unassigned) [Example 8A]" value_observed=7.42

Pending compound:
Entry CC(C)OC(=O)C[C@@H](C)NP(=O)(CO[C@H](C)Cn1cnc2c(N)ncnc21)N[C@@H](C)C(=O)OC(C)C (single isomer, unassigned) [Example 9A] : pIC50 on HIV-1 (H9/IIIB strain) = 7.18

====

System: HIV-1 (H9/IIIB strain)
Test: microbe, parasite or virus in culture
Assay type: cell-based
Settings: 50% normal human serum; MT4-GFP cells infected with HIV-1 H9/IIIB; inhibition of reproductive ratio R0; read-out: Viking, IC50 (50% NHS)
Field: IC50. Provide a value for each of the molecules that follow.
Give bare numbers, in nM.

Would you please look over these solved cases?
molecule="CCCCCOC(=O)C(C)(C)NP(=O)(CO[C@H](C)Cn1cnc2c(N)ncnc21)N[C@@H](C)CC(=O)OC(C)C (single isomer, unassigned) [Example 26A]" unit_info=nM value_observed=116
molecule="CCCCCCOC(=O)C(C)(C)NP(=O)(CO[C@H](C)Cn1cnc2c(N)ncnc21)N[C@@H](CC(=O)OC(C)C)C(C)C (single isomer, unassigned) [Example 28A]" unit_info=nM value_observed=58.5
molecule="CCCCOC(=O)[C@H](C)NP(=O)(CO[C@H](C)Cn1cnc2c(N)ncnc21)NC[C@H](C)C(=O)OC(C)C (single isomer, unassigned) [Example 15B]" unit_info=nM value_observed=79.4
molecule="CC(C)OC(=O)[C@@H](C)CNP(=O)(CO[C@H](C)Cn1cnc2c(N)ncnc21)N[C@H](C)C(=O)OC1CCC1 (single isomer, unassigned) [Example 20A]" unit_info=nM value_observed=4100
molecule="CCCCCOC(=O)[C@H](C)NP(=O)(CO[C@H](C)Cn1cnc2c(N)ncnc21)NC[C@H](C)C(=O)OC(C)C (single isomer, unassigned) [Example 16B]" unit_info=nM value_observed=28.3
molecule="CC(C)OC(=O)C[C@H](C)NP(=O)(CO[C@H](C)Cn1cnc2c(N)ncnc21)N[C@@H](C)C(=O)OC(C)C (single isomer, unassigned) [Example 8B]" unit_info=nM value_observed=531

Consider the record given below.
// IC50 value for CCCCCCCOC(=O)[C@H](C)NP(=O)(CO[C@H](C)Cn1cnc2c(N)ncnc21)NC[C@H](C)C(=O)OC(C)C (single isomer, unassigned) [Example 17B] : 12
